target: T1, Human ErbB3 extracellular part fused to Fc of human IgG1 (human, UniProt P21860 20-643); assay: SPR (BIAcore 2000), peptide dendrimer immobilized, receptor ECD-Fc injected; mean ± SEM, SEM 8e-9 in r11c2
T1 construct: extracellular domain; also called ErbB3-Fc chimeric protein; not shown: Fc region of human IgG1
T1 sequence (P21860 20-643): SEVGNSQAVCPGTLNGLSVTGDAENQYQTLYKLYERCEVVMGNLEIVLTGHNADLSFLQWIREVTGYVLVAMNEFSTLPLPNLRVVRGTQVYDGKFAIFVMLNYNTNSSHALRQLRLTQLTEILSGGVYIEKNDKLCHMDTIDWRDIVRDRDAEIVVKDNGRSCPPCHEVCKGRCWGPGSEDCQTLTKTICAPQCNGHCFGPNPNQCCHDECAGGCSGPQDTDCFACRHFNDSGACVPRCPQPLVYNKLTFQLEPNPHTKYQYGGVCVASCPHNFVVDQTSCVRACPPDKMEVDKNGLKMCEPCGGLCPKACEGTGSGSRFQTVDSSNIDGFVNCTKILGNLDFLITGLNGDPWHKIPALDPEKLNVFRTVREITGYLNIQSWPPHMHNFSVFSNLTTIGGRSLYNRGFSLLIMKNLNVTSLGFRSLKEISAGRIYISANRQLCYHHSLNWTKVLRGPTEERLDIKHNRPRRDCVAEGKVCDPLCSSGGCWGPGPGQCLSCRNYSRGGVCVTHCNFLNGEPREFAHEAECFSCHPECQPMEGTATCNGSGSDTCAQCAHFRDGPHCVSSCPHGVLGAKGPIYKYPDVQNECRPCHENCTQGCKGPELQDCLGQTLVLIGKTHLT
Where no end group is shown, it is not given here.
observable: pKd
Field pKd (float): negative decimal logarithm of the concentration in molar.

Tell me pKd reported for MLYNPTTYQMDVNPEGK (also: tetrameric dendrimer: four monomers coupled to a lysine backbone, It was immobilized on a CM5 chip by amine coupling; also called 1DL) [Inherbin1 peptide, tetrameric dendrimer]
7.31

Origin of the recorded values: patent US20090092617A1
